- tested system: BRD4 (Homo sapiens)
- assay: Differential Scanning Fluorimetry (DSF), stability of BRD4 upon ligand binding
- test conditions: 100 μM protein, 4 μM compound and 2% DMSO
quantity name: ΔTm at 4 µM (°C)

Cc1cnc(Nc2ccc(N3CCN(C)CC3)cc2)nc1Nc1ccc(Cl)c(S(=O)(=O)NC(C)(C)C)c1	8.4

[A] Cc1cnc(Nc2ccc(C3CCN(C)CC3)cc2)nc1Nc1ccc(Cl)c(NS(=O)(=O)C(C)(C)C)c1
[B] COc1ccc(Nc2nc(Nc3ccc(N4CCN(C)CC4)cc3)ncc2C)cc1OC
query: Hi team, can someone confirm which has the larger ΔTm at 4 µM: A or B ? Thanks. Let me know the label of the one you choose.
result: A
(A: 10 °C, B: 5.6 °C)

[a] Cc1cnc(Nc2ccc(N3CCN(C)CC3)cc2)nc1Nc1cccc(S(=O)(=O)NC2CC2)c1
[b] CCOc1cccc(Nc2nc(Nc3ccc(N4CCN(C)CC4)cc3)ncc2Cl)c1
query: Returns: the argument ( a or b ) having the larger ΔTm at 4 µM. When you have decided, please share the label of that item.
result: a
